system: B-cell; test: Immunostimulant activity in Balb/c mouse B cells assessed as LPS-induced cell proliferation at 10 uM after 48 hrs by MTT assay relative to control; format: ADME, cell-based

>  <Compound>
CC(=O)OCC(C)C1CCc2c(C)cc(OC(C)=O)c(C)c2C1O (stereo not drawn)

>  <System Tested>
B-cell

>  <Activity>
1.76%

$$$$
>  <Compound>
COC(=O)[C@H](C)C1=Cc2c(C)c(OC)cc(C)c2CC1

>  <System Tested>
B-cell

>  <Activity>
23%

$$$$
>  <Compound>
Cc1c(N)c(O)c(C)c2c1CC[C@H]1[C@H](C)C(=O)O[C@@H]21

>  <System Tested>
B-cell

>  <Activity>
33.33%

$$$$
>  <Compound>
CCOC(=O)[C@H](C)c1ccc2c(C)cc(O)c(C)c2c1

>  <System Tested>
B-cell

>  <Activity>
23.5%

$$$$
>  <Compound>
CCOC(=O)[C@H](C)C1=Cc2c(C)c(O)cc(C)c2CC1

>  <System Tested>
B-cell

>  <Activity>
23%

$$$$
>  <Compound>
Cc1ccc(NC(=O)[C@H](C)[C@@H]2CCc3c(C)cc(O)c(C)c3C2)cc1O

>  <System Tested>
B-cell

>  <Activity>
11.44%

$$$$
>  <Compound>
CC1=C(Cl)C=C[C@]2(C)CC[C@@H]3C(=C12)OC(=O)[C@H]3C

>  <System Tested>
B-cell

>  <Activity>
7.96%

$$$$
>  <Compound>
COc1cc(C)c2ccc([C@@H](C)C(=O)O)cc2c1C

>  <System Tested>
B-cell

>  <Activity>
13.33%

$$$$
